measurement-target: UniProt:P34972
Sequence (P34972 whole entry): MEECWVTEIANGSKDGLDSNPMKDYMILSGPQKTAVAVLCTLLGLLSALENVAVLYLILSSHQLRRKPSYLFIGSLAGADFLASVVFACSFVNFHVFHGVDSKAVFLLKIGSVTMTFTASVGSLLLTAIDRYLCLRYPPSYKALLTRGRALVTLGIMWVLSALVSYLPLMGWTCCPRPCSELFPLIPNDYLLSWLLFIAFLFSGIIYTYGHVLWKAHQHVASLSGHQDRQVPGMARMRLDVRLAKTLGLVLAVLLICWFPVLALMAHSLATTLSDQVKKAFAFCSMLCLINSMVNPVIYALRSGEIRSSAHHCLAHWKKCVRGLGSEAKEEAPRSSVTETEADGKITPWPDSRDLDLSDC
measurement-description: cAMP assay (inhibition of FSK stimulated cAMP), CB2
Assay type: cell-based
assay-setup: class symbols
assay-readout: EC50

> print(dat)
                                    molecule    meas.value
 1  C[C@H](/C=C\C/C=C\C/C=C\C1CC1C(=O)OC(CO)CO)/C=C\CCCCC(F)(F)F (single isomer, unassigned) [Compound 5.11.8]  10 to 200 nM
 2  C[C@H](/C=C\C/C=C\C/C=C\CCCC(=O)NC(CO)CO)/C=C\CCCCCOC1CCCCO1 (some centres unmarked) [Compound 5.1.6c]     > 1000 nM
 3  C[C@H](/C=C\C/C=C\C/C=C\CCCC(=O)NC(CO)CO)/C=C\CCCCCO[N+](=O)[O-] [Compound 5.1.6b]  10 to 200 nM
 4  C[C@H](/C=C\C/C=C\C/C=C\[C@H]1C[C@@H]1C(=O)OC(CO)CO)/C=C\CCCCC(F)(F)F [Compound 5.12.2]  10 to 200 nM
 5  CCCCC/C=C\C/C=C\C/C=C\C/C=C\CCCC(=O)OC(CO)CO [Compound 2-AG, 2-arachidonoylglycerol, reference compound]  10 to 200 nM
 6  CCCCC/C=C\C/C=C\C/C=C\C/C=C\C1CC(C(=O)OC(CO)CO)C1 (centres unmarked) [Compound 5.2.2c]     > 1000 nM
 7  CCCCC/C=C\C/C=C\C/C=C\C/C=C\C1CC1C(=O)OC(CO)CO (centres unmarked) [Compound 5.2.2b]  10 to 200 nM
 8  CCCCC/C=C\C/C=C\C/C=C\C/C=C\C1(CC(=O)OC(CO)CO)CCC1 [Compound 5.2.2d]     > 1000 nM
 9  C[C@H](/C=C\C/C=C\C/C=C\[C@H]1C[C@H]1C(=O)OC(CO)CO)/C=C\CCCCC(F)(F)F [Compound 5.12.3]  10 to 200 nM
10  CCCCC/C=C\[C@H](C)/C=C\C/C=C\C/C=C\CCCOC(=O)C(C)(CO)CO [Compound 6.2.2]  10 to 200 nM

Alright, here's another molecule for you.
Ask: Indicate its recorded EC50; the molecule in question is CCCCC/C=C\[C@@H](C)/C=C\C/C=C\C/C=C\CCCC(=O)OC(CO)CO [Compound 5.4.3d]
Reply: 0.01 to 10 nM

---

measurement-target: CB1 receptor (rCB1) (Rattus norvegicus, UniProt P20272)
Sequence (P20272 whole entry): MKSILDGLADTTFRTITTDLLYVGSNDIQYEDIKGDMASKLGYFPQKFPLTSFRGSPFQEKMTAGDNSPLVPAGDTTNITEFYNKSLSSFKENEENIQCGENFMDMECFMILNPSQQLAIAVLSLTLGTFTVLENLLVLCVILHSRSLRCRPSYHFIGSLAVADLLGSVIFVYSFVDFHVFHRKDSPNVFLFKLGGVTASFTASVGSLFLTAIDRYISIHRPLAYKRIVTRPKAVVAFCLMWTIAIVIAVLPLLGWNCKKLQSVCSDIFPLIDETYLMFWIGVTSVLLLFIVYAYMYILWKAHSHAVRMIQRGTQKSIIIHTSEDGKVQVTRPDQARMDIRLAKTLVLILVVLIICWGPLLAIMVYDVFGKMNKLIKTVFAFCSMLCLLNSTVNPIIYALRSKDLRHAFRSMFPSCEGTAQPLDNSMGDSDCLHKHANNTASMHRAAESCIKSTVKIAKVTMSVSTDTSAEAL
measurement-description: cAMP assay (inhibition of FSK stimulated cAMP), CB1
Assay type: cell-based
assay-setup: class symbols
pEC50: −log10 of the molar value.
For each record, write down the corresponding pEC50.

Solved entries:
> print(dat)
                                   compound     meas.value
1  C[C@H](/C=C\C/C=C\C/C=C\[C@H]1C[C@@H]1C(=O)OC(CO)CO)/C=C\CCCCC(F)(F)F         < 6.00
2  CCCCC/C=C\C/C=C\C/C=C\C/C=C\C1CCC(C(=O)OC(CO)CO)CC1 (stereo not shown)         < 6.00
3  CCCCC/C=C\C/C=C\C/C=C\C/C=C\C1CC1C(=O)OC(CO)CO (stereo not shown)   6.70 to 8.00
4  C[C@H](/C=C\C/C=C\C/C=C\C1CC1C(=O)OC(CO)CO)/C=C\CCCCC(F)(F)F (single isomer, unassigned) [Compound 5.11.8]  8.00 to 11.00

# batch: return pEC50 for each of the 6 compounds below
1. O=C(OC(CO)CO)C1CC1/C=C\C/C=C\C/C=C\C/C=C\CCCCCO[N+](=O)[O-] (stereo not shown)
2. C[C@H](/C=C\C/C=C\C/C=C\CCCC(=O)NC(CO)CO)/C=C\CCCCCO[N+](=O)[O-]
3. CCCCC/C=C\[C@H](C)/C=C\C/C=C\C/C=C\CCCOC(=O)C(C)(CO)CO
4. N#CCCCCC/C=C\C/C=C\C/C=C\C/C=C\C1CC1C(=O)OC(CO)CO (stereo not shown)
5. C[C@H](/C=C\C/C=C\C/C=C\[C@@H]1C[C@H]1C(=O)OC(CO)CO)/C=C\CCCCC(F)(F)F
6. C[C@H](/C=C\C/C=C\C/C=C\CCCC(=O)NC(CO)CO)/C=C\CCCCCOC1CCCCO1 (stereo partly shown)

Reply:
1. 6.70 to 8.00
2. 8.00 to 11.00
3. 6.70 to 8.00
4. 6.70 to 8.00
5. 6.70 to 8.00
6. < 6.00
